Test system: P12-Ichikawa
Assay: cell viability relative to DMSO control; higher = less cytotoxic
Conditions: RPMI 5 mM glucose + 10% dialyzed FBS; 48 h; 0.0632 µM
attribute-measured: cell viability (%)
The reply should contain only the number, in %.

compound	assayed-target	attribute-measured	measured-number
c1ccc(-c2nn3c(c2-c2ccnc4cc(OCCN5CCOCC5)ccc24)CCC3)nc1	P12-Ichikawa	cell viability	112
O=C(Oc1ccc([N+](=O)[O-])cc1)N1CCN(Cc2cccc(Oc3ccccc3)c2)CC1	P12-Ichikawa	cell viability	105
CC1=CC2=C(O1)C(=C3OC(=O)\C=C(C)/C3=C2)C	P12-Ichikawa	cell viability	113
C[Se]CCC(N)C(=O)O (centres undefined)	P12-Ichikawa	cell viability	88.2
Cc1cnc(Nc2ccc(OCCN3CCCC3)cc2)nc1Nc1cccc([S+](=O)([O-])NC(C)(C)C)c1	P12-Ichikawa	cell viability	117

// query cell viability value for entry N#Cc1c(C2CCNCC2)cc(-c2c(O)cccc2OCC2CC2)nc1N 105

// query cell viability value for entry CC1(C)OC/2=C(\[C@H](NCC3=CC=CC=C3)[C@@H]1O)C(=O)C4=CC=CC=C4C2=O 101

// query cell viability value for entry CC1OC(OC/2=C(/OC3=C(C(=CC(=C3)O)O)C2=O)C4=CC=C(O)C=C4)C(O)C(OC(C)=O)C1OC(C)=O (centres undefined) 116

// query cell viability value for entry c1ccc2c(-c3cnn4cc(-c5ccc(N6CCNCC6)cc5)cnc34)ccnc2c1 168

* * *

Below is a list of entries, each paired with its recorded cell viability value.
Test system: P12-Ichikawa
Test: cell viability relative to DMSO control; higher = less cytotoxic
Settings: RPMI 5 mM glucose + 10% dialyzed FBS; 48 h; 46.1 µM
The reply should contain only the number, in %.

compound	cell viability [%]
CC1(C)OC/2=C(\[C@H](NCC3=CC=CC=C3)[C@@H]1O)C(=O)C4=CC=CC=C4C2=O	5.89
c1ccc2c(-c3cnn4cc(-c5ccc(N6CCNCC6)cc5)cnc34)ccnc2c1	3.35
CO[C@@H]1[C@H](N(C)C(=O)c2ccccc2)C[C@H]2O[C@]1(C)n1c3ccccc3c3c4c(c5c6ccccc6n2c5c31)C(=O)NC4	30.2
CN(C)CCC=C1C2=C(C=CC=C2)\C=C/C3=C1C=CC=C3	84.1
Cc1ccccc1C(C(=O)NC1CCCCC1)N(C(=O)CNc1ccc(C#N)cc1)c1cccc(F)c1 (centres undefined)	98.6
C[C@H]1CCC/C=C/C2C[C@H](O)C[C@H]2[C@H](O)/C=C/C(=O)O1 (some centres undefined)	1.83
NC12CC3CC(CC(C3)C1)C2	103
c1ccc(-c2nn3c(c2-c2ccnc4cc(OCCN5CCOCC5)ccc24)CCC3)nc1	84.8

Okay, now this compound:
// query cell viability value for entry O=C(c1ccc(F)cc1)C1CCN(CCn2c(=O)[nH]c3ccccc3c2=O)CC1 102

* * *

Test system: P12-Ichikawa
Test: AUC of viability dose-response curve (% viability x log10 dose units); higher = less sensitive
Conditions: RPMI 5 mM glucose + 10% dialyzed FBS; 48 h
Below is a list of entries, each paired with its recorded AUC of viability dose-response curve value.
# answer = number (no unit)

Take a look at these entries with their results.
molecule	measured-number
CC1=C(/C=C/C(C)=C/C=C/C(C)=C/C(=O)Nc2ccc(O)cc2)C(C)(C)CCC1	276
CCN(CC)CCOC1=CC=C(NC2=NC=C3\C=C(/C(=O)N(C)C3=N2)C4=C(Cl)C=CC=C4Cl)C=C1	367
CC(C)(O)CNc1nc(Nc2ccnc(C(F)(F)F)c2)nc(-c2cccc(C(F)(F)F)n2)n1	381

Okay, now this molecule:
Find AUC of viability dose-response curve (P12-Ichikawa) for the entry CCOc1ccccc1OCCNC(C)Cc1ccc(OC)c([S+](N)(=O)[O-])c1 (configuration not stated) 471

* * *

Below is a list of entries, each paired with its recorded cell viability value.
Test system: P12-Ichikawa
Experiment: cell viability relative to DMSO control; higher = less cytotoxic
Conditions: HPLM + 10% dialyzed FBS; 48 h; 0.0211 µM
The reply should contain only the number, in %.

Take a look at these entries with their results.
molecule	unit-annotation	cell viability
COc1cc(N2CCC(N3CCN(C)CC3)CC2)ccc1Nc1ncnc(Nc2ccccc2[S+](=O)([O-])C(C)C)n1	%	125
CN(C)c1nc(N(C)C)nc(N(C)C)n1	%	104
CN[C@@H](C)C(=O)N[C@H]1CCCC[C@H]2CC[C@@H](C(=O)N[C@@H](c3ccccc3)c3cn(CCCCc4ccc(CCCCn5cc([C@@H](NC(=O)[C@@H]6CC[C@@H]7CCCC[C@H](NC(=O)[C@H](C)NC)C(=O)N76)c6ccccc6)nn5)cc4)nn3)N2C1=O	%	95.4
CCOP(=O)(OCC)C(C)NC(=O)N(CCCl)N=O (stereo not given)	%	119

// query cell viability value for entry CCOC(=O)c1ccc(C#Cc2ccc3c(c2)C(C)(C)CCS3)nc1 105

* * *

Below is a list of entries, each paired with its recorded cell viability value.
System: SEM cells
Test: cell viability relative to DMSO control; higher = less cytotoxic
Conditions: HPLM + 10% dialyzed FBS; 48 h; 0.0211 µM
The reply should contain only the number, in %.

compound	cell viability / %
COc1ccc2cccc(CCNC(C)=O)c2c1	111
CC1(C)OC/2=C(\[C@H](NCC3=CC=CC=C3)[C@@H]1O)C(=O)C4=CC=CC=C4C2=O	115
Clc1ccc(COC(Cn2ccnc2)c2ccc(Cl)cc2Cl)cc1 (configuration not stated)	97.2
CCC(=O)O[C@@]1([C@H](C)C[C@H]2[C@@H]3C[C@H](F)\C4=C\C(=O)\C=C/[C@]4(C)[C@@]3(F)[C@@H](O)C[C@]12C)C(=O)SCF	68
CCN1CCN(Cc2ccc(-c3cc4c(N[C@H](C)c5ccccc5)ncnc4[nH]3)cc2)CC1	132

Find cell viability (SEM cells) for the entry Cn1c(=O)c2c(ncn2CC(O)CO)n(C)c1=O (configuration not stated) 92.6

Find cell viability (SEM cells) for the entry N#Cc1c(C2CCNCC2)cc(-c2c(O)cccc2OCC2CC2)nc1N 109

Find cell viability (SEM cells) for the entry N/C(=N\C(=O)c1nc(Cl)c(N)nc1N)NCc1ccccc1 106

Find cell viability (SEM cells) for the entry CCN(CC)CCOC1=CC=C(NC2=NC=C3\C=C(/C(=O)N(C)C3=N2)C4=C(Cl)C=CC=C4Cl)C=C1 74.5

Find cell viability (SEM cells) for the entry CN(C(=O)c1ccc(F)cc1C(F)(F)F)C1CCN(c2nnc(-c3ccnn3C)c3ccccc23)CC1 62.4

Find cell viability (SEM cells) for the entry COc1cc(/C=C/C(=O)CC(=O)/C=C/c2ccc(O)c(OC)c2)ccc1O 98.8

Find cell viability (SEM cells) for the entry c1ccc2c(Oc3nc(Nc4ccc(N5CCOCC5)cc4)c4ncn(C5CCCCC5)c4n3)cccc2c1 112

Find cell viability (SEM cells) for the entry CC1(C)O[C@H]2CC(=O)OC[C@]23[C@H]2CC[C@@]4(C)[C@H](c5ccoc5)OC(=O)[C@H]5O[C@]54[C@]2(C)C(=O)C[C@@H]13 96.2

Find cell viability (SEM cells) for the entry COc1ccc(-c2nc3cc(C4=NNC(=O)CC4C)ccc3[nH]2)cc1 (configuration not stated) 107

Find cell viability (SEM cells) for the entry COc1cc2ncnc(Nc3ccc(F)c(Cl)c3)c2cc1OCCCN1CCOCC1 103

Find cell viability (SEM cells) for the entry Nc1ccc([S+](=O)([O-])Nc2ccccn2)cc1 93.7

Find cell viability (SEM cells) for the entry CN(C)c1ccc(C(=O)NCCCCCCC(=O)NO)cc1 88.1

* * *

Below is a list of entries, each paired with its recorded cell viability value.
System: SEM cells
Test: cell viability relative to DMSO control; higher = less cytotoxic
Conditions: RPMI 5 mM glucose + 10% FBS; 48 h; 0.19 µM
The reply should contain only the number, in %.

molecule	attribute-measured	measured-number
C[C@@]12OC(=O)[C@@]1(NC(=O)[C@@H]2CCCl)[C@@H](O)[C@H]\3CCC\C=C3	cell viability	8.22
CCCCc1oc2ccc(NS(C)(=O)=O)cc2c1C(=O)c1ccc(OCCCN(CCCC)CCCC)cc1	cell viability	92.6
CN1C(=O)COc2c(C(=O)NC3CN4CCC3CC4)cc(Cl)cc21 (stereo unspecified)	cell viability	95.7
COC1=CC=C(C=C1)C/2=C/OC3=CC(=CC=C3C2=O)O	cell viability	117
CCCCOc1ccc(C(=O)Nc2ccc(F)cc2F)cc1	cell viability	92.7
CC(C)c1ccc2oc3nc(N)c(C(=O)O)cc3c(=O)c2c1	cell viability	134
O=P(O)(O)C(O)(Cc1cccnc1)P(=O)(O)[O][Na] (stereo unspecified)	cell viability	100
CCC(CC)[C@H](NC(C)=O)[C@@H]1[C@H](O)[C@@H](C(=O)O)C[C@H]1NC(=N)N	cell viability	17.8

Okay, now this molecule:
Find cell viability (SEM cells) for the entry COC(=O)N[C@H](C(=O)N[C@@H](Cc1ccccc1)[C@@H](O)CN(Cc1ccc(-c2ccccn2)cc1)NC(=O)[C@@H](NC(=O)OC)C(C)(C)C)C(C)(C)C 110
